- testTarget: T1, human LTβR extracellular domain fused with an Fc fragment at the C-terminus (human, UniProt P36941 31-227)
- T1 construct: extracellular domain; Bought; also called hLTβR; not shown: Fc fragment at the C-terminus
- T1 sequence (P36941 31-227): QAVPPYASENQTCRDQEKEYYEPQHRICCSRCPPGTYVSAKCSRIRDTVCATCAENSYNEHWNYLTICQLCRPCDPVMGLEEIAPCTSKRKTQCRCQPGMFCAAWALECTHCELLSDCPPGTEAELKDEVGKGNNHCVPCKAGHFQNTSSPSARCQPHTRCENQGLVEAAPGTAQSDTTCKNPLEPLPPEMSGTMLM
- assayExplanation: ELISA on coated target-Fc
Field: EC50. Provide a value for each of the binders that follow.
Number only, in µg/mL; omit the unit.

Task: Answer with the recorded EC50 for the binder listed here: LIGHT-20 (ligand, Printed mutations: S160A, L220S, E222D; Soluble protein carries an N-terminal His tag) DGPAGSWEQLIQERRSHEVNPAAHLTGANSSLTGSGGPLLWETQLGLAFLRGLSYHDGALVVTKAGYYYIYSKVQLGGVGCPLGLAATITHGLYKRTPRYPEELELLVSQQSPCGRATSSSRVWWDSSFLGGVVHLEAGEKVVVRVSDDRLVRLRDGTRSYFGAFMV
Output: 0.0521

Task: Specify measured EC50 for LIGHT-11 (ligand, Printed mutations: G150S, L220S; Soluble protein carries an N-terminal His tag) DGPAGSWEQLIQERRSHEVNPAAHLTGANSSLTGSGGPLLWETQLGLAFLRGLSYHDGALVVTKAGYYYIYSKVQLSGVGCPLGLASTITHGLYKRTPRYPEELELLVSQQSPCGRATSSSRVWWDSSFLGGVVHLEAGEKVVVRVSDERLVRLRDGTRSYFGAFMV .
Output: 0.0395

Task: Report EC50 for LIGHT-1 (ligand, Printed mutations: V152M, W198Q, R228L; Soluble protein carries an N-terminal His tag) DGPAGSWEQLIQERRSHEVNPAAHLTGANSSLTGSGGPLLWETQLGLAFLRGLSYHDGALVVTKAGYYYIYSKVQLGGMGCPLGLASTITHGLYKRTPRYPEELELLVSQQSPCGRATSSSRVWQDSSFLGGVVHLEAGEKVVVRVLDERLVRLLDGTRSYFGAFMV
Output: 0.0493
